- Assay system: T1, Biotinylated target ligand human DLL3 (human, UniProt Q9NYJ7 27-492, limits assumed, biotinylated (site not stated))
- T1 sequence: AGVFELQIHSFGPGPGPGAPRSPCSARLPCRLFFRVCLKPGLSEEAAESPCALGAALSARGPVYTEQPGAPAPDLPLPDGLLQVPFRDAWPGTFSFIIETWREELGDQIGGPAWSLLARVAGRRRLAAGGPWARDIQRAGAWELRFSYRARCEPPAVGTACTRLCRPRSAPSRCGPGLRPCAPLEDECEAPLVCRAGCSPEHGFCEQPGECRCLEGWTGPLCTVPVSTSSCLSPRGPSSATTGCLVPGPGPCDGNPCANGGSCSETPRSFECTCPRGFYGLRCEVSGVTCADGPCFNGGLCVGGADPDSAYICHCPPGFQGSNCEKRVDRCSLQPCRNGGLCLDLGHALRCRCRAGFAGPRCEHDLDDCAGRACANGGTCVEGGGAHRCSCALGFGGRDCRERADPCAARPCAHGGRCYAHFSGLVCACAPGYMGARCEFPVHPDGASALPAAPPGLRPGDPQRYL
- Test: SPR, biotinylated human DLL3 on streptavidin chip; A = KD<=1.0 nM
*1 amine or outer side, *2 acyl side, *3 side chain or, on linkers, in order; H or OH if unused. Bridges are numbered along the chain shown (N, C = ends). [ ]: non-standard residue; d: D form. The star is where a group is joined. Ala(piperidin-4-yl) = O=C([C@H](CC1CCN([*:3])CC1)N[*:1])[*:2]; DOTA = O=C(O)CN1CCN(CC(=O)O)CCN(CC(=O)*)CCN(CC(=O)O)CC1; 2Nal = N[C@@H](Cc1ccc2ccccc2c1)C(=O)O; aIle = CC[C@@H](C)[C@H](N)C(=O)O
Endpoint name: Kd

Query string: Output measured Kd for this item: Ac-WT[aIle]C[Ala(piperidin-4-yl)]N[2Nal]K(DOTA)DCWP-NH2 (disulfide 4-10) [Cpd No. 303]
Result string: < 1 nM
